Reference source: ChEMBL document CHEMBL3507680

Some molecules, each annotated with its measured cytotoxicity at 70.5 h.
test_name: Human HepG2 cell viability assay in 384 well format
Type: toxicity, cell-based
Design: dose 125 nL, time 70.5 hour; concentration not given beside the values
condition_summary: HepG2 cells, read-out: Inhibition
measure_name: cytotoxicity at 70.5 h (%)

>>> recorded_value("CCn1c(C)cc(C(=O)N2CCc3nnc(N)cc3C2)c1C")
-0.105
>>> recorded_value("CN1CCC(c2nnc(CN3CCC(O)CC3)n2C)CC1")
-5.78
>>> recorded_value("COc1cccc(CN(C)Cc2ccc(C#N)cc2)c1OC")
-1.54
>>> recorded_value("Cc1ccc(O)c(C(=O)N2CCCC2CC(=O)c2cnn(C)c2)c1 (stereo unspecified)")
-4.97
>>> recorded_value("O=C(NCc1ccco1)[C@H]1CC[C@@H]2[C@@H](CCN2c2ncc(F)cn2)O1")
-10.2
>>> recorded_value("Cc1nn(C)c2nc(N(C)CCN(C)C)sc12")
-9.29
>>> recorded_value("O=C1NCCCCC1Sc1n[nH]c(=O)n1C1CC1 (stereo unspecified)")
15.9
>>> recorded_value("CNC(=O)C1CCN(c2nc3nc[nH]c(=O)c3s2)CC1")
-16.7
>>> recorded_value("CC(C)c1nc(C2CCCN(c3nccc(C(F)(F)F)n3)C2)no1 (stereo unspecified)")
-2.52
>>> recorded_value("COc1ccccc1C1CNC(=O)c2nc(-c3nccn3C)[nH]c2C1 (stereo unspecified)")
5.33
>>> recorded_value("COc1cc(C)nc(N2CCN(C(=O)CNC(C)(C)C)CC2)n1")
-15.6
